# system under test: erythrocytes infected with P. falciparum field isolate 9215
# assay protocol: flow cytometry, staining of IEs
observed property: % parasite recognition (%)
All answers are understood in %, so give the number only.

If you can, please state the reported % parasite recognition value of MGD34 (antibody) VH: EVQLVESGPGLMKTSGTLSLTCAVSGDYVNTNRRWSWVRQAPGKGLEWIGEVHQSGRTNYNPSLKSRVTISVDKSKNQFSLKVDSVTAADTAVYYCARASPLKSQRDTEDLPRPSISAEPGTVIPLGSHVTFVCRGPVGVQTFRLERERNYLYSDTEDVSQTSPSESEARFRIDSVNAGNAGLFRCIYYKSRKWSEQSDYLELVVKGEDVTWALSQSQVDPRACPQGELPISTDIYYVDVWGNGTTFTVSS VL: AIRMTQSPSSLSASPGDKVSITCRASQHINDSLAWFQQRPGKAPKLLIYGASNLHSGVPSRFSGTGSGTDFTLTITGLQSEDFATYFCQQCNCFPPDFGQGTRLEIK . 35.7
